Reference for the values: ChEMBL document CHEMBL1201862

test system: HCT-116; test: NCI tumour cell line growth inhibition, 48 h
Active and inactive are the calls of the source. Rule as the data show it: active = GI50 up to about 1.1 µM and inactive = higher.
endpoint name: GI50

Asked: // lookup GI50 for CCCC(=O)Nc1ncnc2c1ncn2C1OC2COP(=O)(O)OC2C1OC(=O)CCC (stereo not drawn)
Given back: > 100 µM (inactive)

Asked: And `CCN(CC)CCNc1ccc2ncn3c4c(OC)ccc(OC)c4c(=O)c1c23` ?
Given back: 0.587 µM (active)

Asked: And `Cc1cc(C)cc(C(=N)c2ccccc2Cc2cccc3ccccc23)c1` ?
Given back: 10.1 µM (inactive)

Asked: And `O=[N+]([O-])c1ccc(-c2noc(-c3ccccc3)c2C2=NCCN2)cc1` ?
Given back: 30.1 µM (inactive)

Asked: And CC(=O)NC(CCCNC(=O)OCc1ccccc1)C(=O)NCc1ccccc1 (stereo not drawn) ?
Given back: > 100 µM (inactive)

Asked: And `CCCCc1ccc(-n2sc3ncc(C)cc3c2=O)cc1` ?
Given back: 78 µM (inactive)

Asked: And `C#CCn1c(=O)c2cccnc2n(CC#C)c1=O` ?
Given back: > 100 µM (inactive)

Asked: And `O=[N+]([O-])/C=C\c1c[nH]c2ccc(OCc3ccccc3)cc12` ?
Given back: 1.73 µM (inactive)

Asked: And `Cc1cccc(/N=C/c2ccc(N(CCC#N)S(=O)(=O)c3ccccc3)cc2C)c1` ?
Given back: > 100 µM (inactive)

Asked: And `N#CCCC1(CCC#N)CCCCCCCCC(CCC#N)(CCC#N)C(=O)C1=O` ?
Given back: > 100 µM (inactive)

Asked: And `Cc1ccc(C)n2c1nc1cc3ccccc3cc12` ?
Given back: 15.3 µM (inactive)

Asked: And `Cc1nc2c(=O)n(-c3ccccc3)c3ccccc3c2o1` ?
Given back: > 100 µM (inactive)

Asked: And C=C1CC2C(=O)N(c3ccccc3)C(=O)C2CC1n1[nH]c(=O)n(Cc2ccccc2)c1=O (stereo not drawn) ?
Given back: > 100 µM (inactive)

Asked: And CCC1(OC(C)=O)C(=O)OCc2c1cc1n(c2=O)Cc2cc3ccccc3nc2-1 (stereo not drawn) ?
Given back: 2.03 µM (inactive)

Asked: And `CCCCOc1ccc(OCCCCCCCCCC[N+](C)(C)C)cc1` ?
Given back: 2.34 µM (inactive)

Asked: And CCOC(=O)C(NC(=O)CC)(Nc1ccccc1OC)C(F)(F)F (stereo not drawn) ?
Given back: > 100 µM (inactive)

Asked: And `COc1cc2c(cc1OCCCOc1cc(-c3ccc(F)cc3)nc(C)n1)N=C[C@@H]1CCCN1C2=O` ?
Given back: 16.9 µM (inactive)

Asked: And `CCOC(=O)c1nc2ccccc2nc1Oc1ccc(C#N)cc1` ?
Given back: > 100 µM (inactive)

Asked: And CC1CN=C(N(Cc2ccccc2)C(=O)Nc2ccc(Cl)c(Cl)c2)S1 (stereo not drawn) ?
Given back: 27.7 µM (inactive)

Asked: And `COc1cc(/C=N/c2ccccn2)cc(OC)c1OC` ?
Given back: > 100 µM (inactive)

Asked: And `O=C(CCc1cc(O)ccc1O)OCCc1ccccc1` ?
Given back: 13 µM (inactive)

Asked: And `CCOC(=O)C(C(=O)OCC)C(=O)c1ccccc1C(=O)c1ccccc1` ?
Given back: 59 µM (inactive)

Asked: And `O=C(O)c1ccccc1/C=C1\Cc2cc3c(cc2C1=O)CCC3` ?
Given back: 27.9 µM (inactive)

* * *

system: MCF7; assay: NCI tumour cell line growth inhibition, 48 h
Active and inactive are the calls of the source. No stated cut-off is given here; in the data, active = GI50 up to about 1.1 µM and inactive = higher.
Return exactly one item of label 1 = active, label 0 = inactive

Asked: Give the logged outcome of this assay for the following compound: `CCN(CC)CCNc1ccc2ncn3c4c(OC)ccc(OC)c4c(=O)c1c23`
Given back: label 0

Asked: And `Nc1ccn([C@@H]2C=C(CO)[C@@H](O)[C@H]2O)c(=O)n1` ?
Given back: label 1

Asked: And `Cc1cc(-c2ccc[nH]2)on1` ?
Given back: label 0

Asked: And `COc1cc2c(c3c1c(=O)c1ccccc1n3C)C=C([N+](=O)[O-])C(C)(C)O2` ?
Given back: label 1

Asked: And `Cc1cc(/N=C/c2ccc(F)cc2)n(-c2ccccc2)n1` ?
Given back: label 0

Asked: And `O=C1C(Cl)=C(N2CCN(CCOCCO)CC2)C(=O)c2ncccc21` ?
Given back: label 0

Asked: And `OC(C/C(=N\N1CCCCC1)c1cccs1)(C(F)(F)F)C(F)(F)F` ?
Given back: label 0

* * *

tested on: EKVX; test: NCI tumour cell line growth inhibition, 48 h
The source made the active and inactive calls. Rule as the data show it: active = GI50 up to about 1.1 µM and inactive = higher.
endpoint name: GI50

Asked: // lookup GI50 for `COc1ccc(\N=C/C=C/C(=C/COC(C)=O)OC(C)=O)cc1`
Given back: 51.8 µM (inactive)

Asked: And `O=C(O[C@@H](/C=C/c1ccccc1)P1(=O)N(Cc2ccccc2)[C@H]2CCCC[C@@H]2N1Cc1ccccc1)c1ccccc1` ?
Given back: 4.12 µM (inactive)

Asked: And `COC(=O)CCSC(=O)Nc1ccccc1Cl` ?
Given back: > 100 µM (inactive)

Asked: And COc1ccccc1NC(=O)CC(=O)N1N=C(C)C(/N=N/c2ccc(C(=O)O)cc2)C1=O (stereo not given) ?
Given back: 28.6 µM (inactive)

Asked: And COc1cc2c(c(OC)c1OC)-c1ccc(=O)c(O)cc1[C@@H](NC(C)=O)CC2 [COLCHICEINE] ?
Given back: 19.7 µM (inactive)

Asked: And Cc1ccc([N+](=O)[O-])cc1NC(=O)C(=O)C1CCC2=C(Sc3ccccc3N2)C1=O (stereo not given) ?
Given back: > 100 µM (inactive)

Asked: And `O=[N+]([O-])/C=C\c1c[nH]c2ccc(OCc3ccccc3)cc12` ?
Given back: 13.4 µM (inactive)

Asked: And `CCOC(=O)C(C)(C)Oc1ccc2c(C)c(-c3ccc(Cl)cc3)c(=O)oc2c1` ?
Given back: 70.3 µM (inactive)

Asked: And CCOC(=O)C1S/C(=N\C(=N)N[N+](=O)[O-])N=C1C (stereo not given) ?
Given back: > 100 µM (inactive)

Asked: And `CC1=NN2C(=N)/C(=C/c3ccccc3)C(=O)N=C2S1` ?
Given back: > 100 µM (inactive)

* * *

Provide the reported GI50 of each item.
test system: HCT-116; assay: NCI tumour cell line growth inhibition, 48 h
The source made the active and inactive calls. Cut-off read from the data, not from the text of the source: active = GI50 up to about 1.1 µM and inactive = higher.

Asked: // lookup GI50 for `O=C(O)CCSCc1ccccc1`
Given back: > 100 µM (inactive)

Asked: And CC(=O)[C@@H]1[C@@H](OC(=O)CCC(C)COC2OC(CO)C(O)C(O)C2O)C[C@H]2[C@@H]3CC=C4C[C@@H](OC5OC(CO)C(OC6OC(C)C(O)C(O)C6O)C(O)C5OC5OC(C)C(O)C(O)C5O)CC[C@]4(C)[C@H]3CC[C@]12C (some centres undefined) ?
Given back: > 100 µM (inactive)

Asked: And O=C(CC1(O)C(=O)Nc2c(Cl)cc(Cl)cc21)c1ccc(F)cc1 (centres undefined) ?
Given back: 35.4 µM (inactive)

Asked: And `COc1ccc(/C=N/N=C(N)N)c(C(=O)O)c1OC` ?
Given back: > 100 µM (inactive)

Asked: And `CCOC(=O)C(=Cc1[nH]c2ccccc2c1-c1c[nH]c2ccccc12)C(=O)OCC` ?
Given back: 10.8 µM (inactive)

Asked: And `O=C1C(Cl)=C(Cl)C(=O)N1c1ccc(Cl)c(Cl)c1Cl` ?
Given back: 85.9 µM (inactive)

Asked: And C#CCNC(Cc1ccccc1)C(=O)O (centres undefined) ?
Given back: > 100 µM (inactive)

Asked: And CC(=O)OC[C@@H](COC(=O)/C=C/c1ccc(O)cc1)OC1OC(CO)C(O)C(O)C1O (some centres undefined) ?
Given back: > 100 µM (inactive)

Asked: And `Cc1cc(/N=C/c2ccc(F)cc2)n(-c2ccccc2)n1` ?
Given back: > 100 µM (inactive)

* * *

Provide the reported GI50 of each item.
system: SNB-19; experiment: NCI tumour cell line growth inhibition, 48 h
Calls of active or inactive are those of the source. Cut-off read from the data, not from the text of the source: active = GI50 up to about 1.1 µM and inactive = higher. Square brackets hold non-standard residues; d marks the D form. Peptide text beside a SMILES is read from it. * marks the point of attachment. ξ: configuration not given here. Propanoyl(3-(4-MeO-Ph)) = COc1ccc(CCC(=O)*)cc1; Thr(3ξ) = CC(O)[C@H](N)C(=O)O; dNMeL = CN[C@H](CC(C)C)C(=O)O; ξLac = CC(O)C(=O)O

Asked: // lookup GI50 for `O=c1c(Cc2c(O)oc3cc(O)ccc3c2=O)c(O)oc2cc(O)ccc12`
Given back: > 100 µM (inactive)

Asked: And `O=c1[nH]c2c(C(F)(F)F)c(Cl)c(-c3ccccc3)nc2o1` ?
Given back: 25.5 µM (inactive)

Asked: And `Cc1c(-c2ccccc2)c(C#N)c2nnn(C3CCCCC3)c(=O)n12` ?
Given back: 66.5 µM (inactive)

Asked: And COC(=O)[C@@H](NC(=O)[C@@H](CC(C)C)N(C)C(=O)[C@@H]1CCCN1C(=O)C(C)O)C(C)OC(=O)CCc1ccc(OC)cc1 (stereo not given in full) (H-[ξLac]P[dNMeL][Thr(3ξ)](Propanoyl(3-(4-MeO-Ph)))-OMe) ?
Given back: > 100 µM (inactive)

Asked: And CCN(CC)CC1c2ccccc2C(CNc2ccccc2)N1C (stereo not given) ?
Given back: > 100 µM (inactive)

Asked: And `CCOC(=O)C(C(=O)OCC)C(=O)c1ccccc1C(=O)c1ccccc1` ?
Given back: > 100 µM (inactive)

Asked: And C[C@]12CC[C@H](OCCC#N)CC1=CC[C@@H]1C2CC[C@]2(C)/C(=N/OCCC#N)CCC12 (stereo not given in full) ?
Given back: 36.6 µM (inactive)

Asked: And COc1cccc(N2C(=O)CSC2c2cc(OC)c(OC)c(OC)c2)c1 (stereo not given) ?
Given back: 23.1 µM (inactive)

Asked: And `Cc1ccc(C(=O)O)cc1NC(=O)c1cc(/C=C/c2ccccc2)[nH]c(=S)n1` ?
Given back: > 100 µM (inactive)

Asked: And `COc1cc2nncc(Sc3cnnc4ccccc34)c2cc1OC` ?
Given back: 19.8 µM (inactive)
